Listed here are compounds together with their documented pKi.
target: Lysophosphatidic acid receptor 1 (Homo sapiens, UniProt Q92633); assay: Competitive antagonist activity at human LPA1 receptor overexpressed in CHO cells assessed as inhibition of LPA-induced [35S]GTPgammaS binding by liquid scintillation counting
Sequence (Q92633 whole entry): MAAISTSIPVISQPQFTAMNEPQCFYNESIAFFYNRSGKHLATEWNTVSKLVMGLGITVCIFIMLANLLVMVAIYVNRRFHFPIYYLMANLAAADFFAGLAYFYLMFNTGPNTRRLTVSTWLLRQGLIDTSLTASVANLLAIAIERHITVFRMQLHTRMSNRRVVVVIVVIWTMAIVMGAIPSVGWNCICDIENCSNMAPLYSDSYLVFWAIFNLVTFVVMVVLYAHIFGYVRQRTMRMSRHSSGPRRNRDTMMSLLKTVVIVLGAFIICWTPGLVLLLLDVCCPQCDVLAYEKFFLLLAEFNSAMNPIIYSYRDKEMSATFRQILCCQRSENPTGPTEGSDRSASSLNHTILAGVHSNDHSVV
pKi is defined as minus the log10 of a concentration measured in mol/L.

CCCCCCCCCCCCCCCCCC(=O)N[C@@H](COP(=O)(O)O)Cc1ccc(OCc2cc(OCC(F)(F)F)ccn2)cc1; 7.08

*Q* // lookup pKi for CCCCCCCCCCCCCCCC(=O)N[C@@H](/C=C/P(=O)(O)O)Cc1ccc(OCc2cc(OCC(F)(F)F)ccn2)cc1
*A* 6.84
